Give inhibition at 100 µM for every item shown.
Test: Hepatotoxicity assessed as induction of mitochondrial (unknown origin) toxicity by measuring mitochondrial inhibitory activity at 100 uM relative to control
Conditions: mitochondria (unknown origin)
Your answer should be a number followed by the unit of measure.

Check the records and state inhibition at 100 µM for "CSc1cc(C(=O)N2CC=CC2)cc(C#N)c1O"
6%

Answer with the recorded inhibition at 100 µM of "CCCc1cc(C(=O)N2CC=CC2)cc(C#N)c1O" only.
7%

Give the reported inhibition at 100 µM for this compound. "N#Cc1cc(C(=O)N2CCSC2)cc(C(F)(F)F)c1O"
29%

For the compound "N#Cc1cc(C(=O)N2CCCC2)cc(C(F)(F)F)c1O" , give its measured inhibition at 100 µM value.
18%

In one line, give reported inhibition at 100 µM of the entry "N#Cc1cc(C(=O)N2CC=CC2)cc(Br)c1O" .
0%

Tell me its inhibition at 100 µM given "CC1=CCN(C(=O)c2cc(C#N)c(O)c(C(F)(F)F)c2)C1" as the entry.
9%

* * *

Target: UniProtKB Q96S37
Sequence (Q96S37 whole entry): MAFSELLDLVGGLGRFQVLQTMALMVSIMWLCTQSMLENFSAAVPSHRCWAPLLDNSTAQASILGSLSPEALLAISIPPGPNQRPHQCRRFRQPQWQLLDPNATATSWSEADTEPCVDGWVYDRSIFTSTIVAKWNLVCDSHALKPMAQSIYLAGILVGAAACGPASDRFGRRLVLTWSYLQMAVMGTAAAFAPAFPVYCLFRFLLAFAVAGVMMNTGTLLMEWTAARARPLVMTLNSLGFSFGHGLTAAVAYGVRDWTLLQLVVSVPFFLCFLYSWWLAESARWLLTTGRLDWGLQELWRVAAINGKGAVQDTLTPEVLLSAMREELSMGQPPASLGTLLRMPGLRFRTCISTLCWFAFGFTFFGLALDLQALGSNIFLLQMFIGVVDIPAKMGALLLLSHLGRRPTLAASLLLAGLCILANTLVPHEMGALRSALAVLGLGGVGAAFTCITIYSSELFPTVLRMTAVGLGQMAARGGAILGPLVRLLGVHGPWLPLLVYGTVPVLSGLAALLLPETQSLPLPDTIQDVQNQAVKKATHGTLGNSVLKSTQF
Assay: Inhibition of URAT1 (unknown origin)-mediated uric acid uptake at 3 uM relative to control
I'd appreciate it if you could supply inhibition at 3 µM values for the items below.
Enter your answer as a number in %; do not include the unit.

Identify measured inhibition at 3 µM corresponding to "N#Cc1cc(C(=O)N2CC=CC2)cc(Cl)c1O"
66

Look up inhibition at 3 µM of "CC1=CCN(C(=O)c2cc(C#N)c(O)c(C(F)(F)F)c2)C1" and report it.
88

Give the reported inhibition at 3 µM for this compound. "CCc1cc(C(=O)N2CC=CC2)cc(C#N)c1O"
54

Annotate the compound "N#Cc1cc(C(=O)N2CCCC2)cc(C(F)(F)F)c1O" with its measured inhibition at 3 µM.
66

Identify the reported inhibition at 3 µM for the following entry. "Cc1cc(C(=O)N2CC=CC2)cc(C#N)c1O"
25

Complete the entry with inhibition at 3 µM for "N#Cc1cc(C(=O)N2CCSC2)cc(C(F)(F)F)c1O"
84

Item "N#Cc1cc(C(=O)N2CCS(=O)(=O)C2)cc(C(F)(F)F)c1O" : provide inhibition at 3 µM
55

Tell me inhibition at 3 µM reported for "N#Cc1cc(C(=O)N2CC=CC2)cc(C2CC2)c1O"
69

Specify measured inhibition at 3 µM for "CCCc1cc(C(=O)N2CC=CC2)cc(C#N)c1O" .
70

Recall and state the measured inhibition at 3 µM for "CCc1cc(C(=O)n2cccc2)cc(C#N)c1O" .
83

Answer with reported inhibition at 3 µM of "N#Cc1cc(C(=O)N2CC=CC2)cc(C(F)(F)F)c1O"
83

Specify measured inhibition at 3 µM for "CC(C)(C)c1cc(C(=O)N2CCCC2)cc(C#N)c1O" .
84

Supply reported inhibition at 3 µM belonging to this compound: "CCc1oc2ccccc2c1C(=O)c1cc(Br)c(O)c(Br)c1"
91

Report measured inhibition at 3 µM; entry is "CC(C)(C)c1cc(C(=O)N2CCSC2)cc(C#N)c1O"
92

Please give measured inhibition at 3 µM of the following entry: "N#Cc1cc(C(=O)N2CC=CC2)cc(Br)c1O"
69

Fill in reported inhibition at 3 µM for this entry: "CCc1cc(C(=O)N2CCSC2)cc(C#N)c1O"
67

For the compound "CSc1cc(C(=O)N2CC=CC2)cc(C#N)c1O" , give its measured inhibition at 3 µM value.
58

Output inhibition at 3 µM of "N#Cc1cc(C(=O)N2CCSC2)cc(C#N)c1O"
62

Return reported inhibition at 3 µM. Input compound: "N#Cc1cc(C(=O)N2CCSC2)cc(Br)c1O"
72

Kindly indicate its recorded inhibition at 3 µM. Item: "CC(C)(C)c1cc(C(=O)N2CC=CC2)cc(C#N)c1O"
92

Output measured inhibition at 3 µM for this item: "N#Cc1cc(C(=O)N2CCC2)cc(C(F)(F)F)c1O"
75

Fill in reported inhibition at 3 µM for this entry: "CC(C)(C)c1cc(C(=O)N2CCC2)cc(C#N)c1O"
71

Note down inhibition at 3 µM recorded for "CCCc1cc(C(=O)N2CC=CC2)cc(C(F)(F)F)c1O"
49

Specify inhibition at 3 µM for "N#Cc1cc(C(=O)N2CC=CC2)cc(I)c1O" and stop.
79

* * *

Exercise: state measured Cmax for each of the compounds provided.
Experiment: Cmax in rat at 3 mg/kg, po
Type: ADME, organism-based
Design: route oral, dose 3 mg/kg
Conditions: in vivo
Please state the figure in ng/mL; there is no need to write the unit.

Respond only with Cmax recorded for "N#Cc1cc(C(=O)N2CC=CC2)cc(C(F)(F)F)c1O"
2610

Supply Cmax value. Item: "N#Cc1cc(C(=O)N2CCSC2)cc(C(F)(F)F)c1O"
3700

Name the recorded Cmax of the item "CC1=CCN(C(=O)c2cc(C#N)c(O)c(C(F)(F)F)c2)C1" in your answer.
2220

* * *

Test: Drug excretion in rat urine at 3 mg/kg, po measured for 4 hrs
Type: ADME, organism-based
Settings: read-out: Drug excretion
Give measured dose excreted at 4 h for each item. Keep answers brief.
// return numeric value only (unit: %, not printed)

Supply measured dose excreted at 4 h of "N#Cc1cc(C(=O)N2CCSC2)cc(C(F)(F)F)c1O" in your reply.
9

For the compound "N#Cc1cc(C(=O)N2CC=CC2)cc(C(F)(F)F)c1O" , report dose excreted at 4 h.
23

Return reported dose excreted at 4 h. Input compound: "CC1=CCN(C(=O)c2cc(C#N)c(O)c(C(F)(F)F)c2)C1"
10

Specify reported dose excreted at 4 h for the compound shown: "CCc1cc(C(=O)N2CCSC2)cc(C#N)c1O"
9.5

* * *

Experiment: Hepatotoxicity assessed as induction of mitochondrial (unknown origin) toxicity by measuring mitochondrial inhibitory activity
Details: mitochondria (unknown origin)
I'd be grateful if you could share measured IC50 for these entries.
Report only the number, with the unit µM understood.

Identify the reported IC50 for the following entry. "CCc1cc(C(=O)n2cccc2)cc(C#N)c1O"
6.7

Give the value of IC50 reported for the following: "O=C(C1=CCCC1)c1cc(Br)c(O)c(Br)c1"
6.6

Fill in reported IC50 for this entry: "CC(C)(C)c1cc(C(=O)N2CC=CC2)cc(C#N)c1O"
64

Query IC50 for "CC(C)(C)c1cc(C(=O)N2CCSC2)cc(C#N)c1O"
27

Return IC50 (reported value) for this compound: "O=C(C1=CCCC1)c1cc(Cl)c(O)c(Cl)c1"
10

Could you please provide reported IC50 for "CCc1oc2ccccc2c1C(=O)c1cc(Br)c(O)c(Br)c1" ? Thanks!
3.1

* * *

Assay: Hepatotoxicity assessed as induction of mitochondrial (unknown origin) toxicity by measuring mitochondrial inhibitory activity at 100 uM relative to control
Details: mitochondria (unknown origin)
Could you label it condition met if measured inhibition at 100 µM is 20% or higher, and condition not met otherwise?

Is inhibition at 100 µM for "CCc1cc(C(=O)N2CCSC2)cc(C#N)c1O" at or above 20%?
condition met

hey, is inhibition at 100 µM for this one >= 20%? "CC(C)(C)c1cc(C(=O)N2CCC2)cc(C#N)c1O"
condition met

Does the reported inhibition at 100 µM for "N#Cc1cc(C(=O)N2CCC2)cc(C(F)(F)F)c1O" fall at or above the 20% mark?
condition not met

Decide: is the reported value of inhibition at 100 µM for "N#Cc1cc(C(=O)N2CCSC2)cc(C#N)c1O" equal to or greater than 20%?
condition met

Quick check, inhibition at 100 µM >= 20%? "CCc1cc(C(=O)N2CC=CC2)cc(C#N)c1O"
condition not met

Has "CC(C)(C)c1cc(C(=O)N2CCCC2)cc(C#N)c1O" a recorded inhibition at 100 µM greater than or equal to 20%?
condition met

Decide: inhibition at 100 µM of "CC(C)(C)c1cc(C(=O)N2CCSC2)cc(C#N)c1O" >= 20%?
condition met

* * *

Kindly state inhibition at 100 µM for each of the entries shown.
Experiment: Hepatotoxicity assessed as induction of mitochondrial (unknown origin) toxicity by measuring mitochondrial inhibitory activity at 100 uM relative to control
Settings: mitochondria (unknown origin)
Report as a plain number; the unit % is understood.

Provide measured inhibition at 100 µM value, entry: "N#Cc1cc(C(=O)N2CC=CC2)cc(C2CC2)c1O"
-7

Specify measured inhibition at 100 µM for "CCCc1cc(C(=O)N2CC=CC2)cc(C(F)(F)F)c1O" .
47

Determine from records and report inhibition at 100 µM for "CC(C)(C)c1cc(C(=O)N2CC=CC2)cc(C#N)c1O"
60

Determine its reported inhibition at 100 µM: "N#Cc1cc(C(=O)N2CC=CC2)cc(I)c1O"
8

Given "N#Cc1cc(C(=O)N2CCS(=O)(=O)C2)cc(C(F)(F)F)c1O" , respond with its inhibition at 100 µM.
-3

Recall and state the measured inhibition at 100 µM for "N#Cc1cc(C(=O)N2CC=CC2)cc(Cl)c1O" .
5

Fill in inhibition at 100 µM for record "O=C(c1cc(Br)c(O)c(Br)c1)N1CC=CC1"
22

Return the recorded inhibition at 100 µM value; entry: "N#Cc1cc(C(=O)N2CC=CC2)cc(C(F)(F)F)c1O"
-1

Look up and state reported inhibition at 100 µM for "Cc1cc(C(=O)N2CC=CC2)cc(C#N)c1O"
-10

Tell us which inhibition at 100 µM value is on record for "N#Cc1cc(C(=O)N2CCSC2)cc(Br)c1O"
23
